SYSTEM: T1, cynomolgus PAI-1 (cynomolgus monkey (Macaca fascicularis), UniProt P05121 24-402 (human entry))
T1 construct: produced in-house in E. coli (non-glycosylated); active cyno PAI-1 in the assays; also called cyno PAI-1; cPAI-1
T1 sequence (P05121 other isoform, or with tags, fused parts or gaps limits assumed): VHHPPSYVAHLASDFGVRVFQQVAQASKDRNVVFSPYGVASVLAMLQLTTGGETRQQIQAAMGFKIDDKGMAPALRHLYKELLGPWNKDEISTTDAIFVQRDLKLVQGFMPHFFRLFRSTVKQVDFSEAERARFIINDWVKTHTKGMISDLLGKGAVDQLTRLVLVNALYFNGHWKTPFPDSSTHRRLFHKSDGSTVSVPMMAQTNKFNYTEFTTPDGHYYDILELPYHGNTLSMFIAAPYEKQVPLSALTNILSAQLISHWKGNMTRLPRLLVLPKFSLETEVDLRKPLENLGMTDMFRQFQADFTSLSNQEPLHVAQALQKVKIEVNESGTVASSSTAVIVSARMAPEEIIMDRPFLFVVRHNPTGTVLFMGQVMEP
TEST DETAILS: Biacore
OBSERVATION TYPE: binding result

[[record]]
binder = "A44-hv6 (antibody, V domains shown, humanized A44, HEK293; constant regions as for A44-hv1; also called LC3 x HC3; variant 6) VH: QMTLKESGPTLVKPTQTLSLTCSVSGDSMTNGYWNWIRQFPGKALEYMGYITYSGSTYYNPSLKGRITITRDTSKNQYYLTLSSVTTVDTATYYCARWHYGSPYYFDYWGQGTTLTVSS VL: DIKMTQSPSSLSASVGDRVTITCKASQDINSYLSWLQQKPGKSPKTLIYRANRSVDGVPSRFSGSGSGQDYSLTISSLQPEDLATYYCLQYDEFPPTFGGGTKLEIK"
meas_value = "binds"

[[record]]
binder = "A44-hv5 (antibody, V domains shown, humanized A44, HEK293; constant regions as for A44-hv1; also called LC2 x HC2b; variant 5) VH: EMTLKESGPTLVKPTQTLSLTCSVTGDSMTQGYWNWIRKFPGKALEYMGYITYSGSTYYNPSLKGRISITRNTSKNQYYLTLSSVTTVDTATYYCARWHYGSPYYFDYWGQGTTLTVSS VL: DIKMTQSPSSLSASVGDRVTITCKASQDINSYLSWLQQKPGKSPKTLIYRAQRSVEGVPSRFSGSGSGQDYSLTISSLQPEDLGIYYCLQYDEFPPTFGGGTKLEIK"
meas_value = "binds"

[[record]]
binder = "A44-hv1 (antibody, V domains shown, humanized A44, HEK293; also called LC1a x HC1a; variant 1) VH: EMTLKESGPTLVKPTQTLSLTCSVTGDSMTNGYWNWIRKFPGKALEYMGYITYSGSTYYNPSLKGRISITRNTSKNQYYLTLSSVTTVDTATYYCARWHYGSPYYFDYWGQGTTLTVSS VL: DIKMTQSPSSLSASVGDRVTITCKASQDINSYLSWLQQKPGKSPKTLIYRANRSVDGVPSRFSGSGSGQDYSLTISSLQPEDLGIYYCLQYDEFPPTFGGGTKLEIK"
meas_value = "binds"

